Entries and their pKd values follow.
Experimental System: T1, human tissue factor pathway inhibitor (TFPI) (human, UniProt P10646 29-304, limits assumed)
T1 construct: bought; also called hTFPI; human TFPI
T1 sequence (looked up): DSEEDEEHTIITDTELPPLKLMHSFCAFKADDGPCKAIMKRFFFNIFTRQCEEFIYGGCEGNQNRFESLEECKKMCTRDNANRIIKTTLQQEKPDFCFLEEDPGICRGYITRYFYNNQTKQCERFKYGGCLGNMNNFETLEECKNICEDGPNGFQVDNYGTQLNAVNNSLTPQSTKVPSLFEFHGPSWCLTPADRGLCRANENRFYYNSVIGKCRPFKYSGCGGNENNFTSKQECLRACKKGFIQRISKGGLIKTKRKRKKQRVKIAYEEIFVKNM
Protocol Description: SPR, TFPI immobilized
Hey, just a heads up that pKd is the negative log base 10 of the concentration in molar.

Known pKd results, listed for orientation:
2A8 LC_D91K (Fab, V domains shown, also called 2A8-15) VH: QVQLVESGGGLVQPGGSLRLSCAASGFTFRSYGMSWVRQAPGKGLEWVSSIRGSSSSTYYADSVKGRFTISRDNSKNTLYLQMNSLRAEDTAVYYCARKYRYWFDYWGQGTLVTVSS VL: DIELTQPPSVSVAPGQTARISCSGDNLRNYYAHWYQQKPGQAPVVVIYYDNNRPSGIPERFSGSNSGNTATLTISGTQAEDEADYYCQSWKDGVPVFGGGTKLTVLG ... 9.32
2A8 LC_D91L (Fab, V domains shown, also called 2A8-16) VH: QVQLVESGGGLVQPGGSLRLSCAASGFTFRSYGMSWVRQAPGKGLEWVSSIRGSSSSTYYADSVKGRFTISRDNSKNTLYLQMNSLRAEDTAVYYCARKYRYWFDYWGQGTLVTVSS VL: DIELTQPPSVSVAPGQTARISCSGDNLRNYYAHWYQQKPGQAPVVVIYYDNNRPSGIPERFSGSNSGNTATLTISGTQAEDEADYYCQSWLDGVPVFGGGTKLTVLG ... 9.00

Attention now shifts to the item below.
Entry under test: 2A8 HC_S35D (Fab, V domains shown, also called 2A8-4) VH: QVQLVESGGGLVQPGGSLRLSCAASGFTFRSYGMDWVRQAPGKGLEWVSSIRGSSSSTYYADSVKGRFTISRDNSKNTLYLQMNSLRAEDTAVYYCARKYRYWFDYWGQGTLVTVSS VL: DIELTQPPSVSVAPGQTARISCSGDNLRNYYAHWYQQKPGQAPVVVIYYDNNRPSGIPERFSGSNSGNTATLTISGTQAEDEADYYCQSWDDGVPVFGGGTKLTVLG . Its pKd was 9.02

Each recorded value in this set is attributed to patent USRE47150.
